Provenance of the data: ChEMBL document CHEMBL1201862

# Test system: SK-MEL-5
# ASSAY_OVERVIEW: NCI tumour cell line growth inhibition, 48 h
Activity calls are given as the source filed them. No stated cut-off is given here; in the data, active = GI50 up to about 1.1 µM and inactive = higher.
Task for the reader: assign each of the following compounds its reported GI50.

[[record]]
compound = "COC(=O)CC(=O)C[P+](c1ccccc1)(c1ccccc1)c1ccccc1"
target_or_test_system = "SK-MEL-5"
result = "158 µM (inactive)"

[[record]]
compound = "O=C(N[C@@H](c1ccccc1)[C@@H](O)C(=O)OCc1ccc2c(c1)OCO2)c1ccccc1"
target_or_test_system = "SK-MEL-5"
result = "> 100 µM (inactive)"

[[record]]
compound = "CCOC(=O)C1=C(C)N(NC(N)=O)C(C)(O)C12CCOC2=O (configuration not stated)"
target_or_test_system = "SK-MEL-5"
result = "> 100 µM (inactive)"

[[record]]
compound = "O=C1NCC2(CCNCC2)N1"
target_or_test_system = "SK-MEL-5"
result = "> 100 µM (inactive)"

[[record]]
compound = "Cc1ccc(F)cc1NC(=O)O/N=C(\\Cl)C(C)C"
target_or_test_system = "SK-MEL-5"
result = "6.97 µM (inactive)"

[[record]]
compound = "Fc1cccc(C2SCc3nc4ccccc4n32)c1F (configuration not stated)"
target_or_test_system = "SK-MEL-5"
result = "21.6 µM (inactive)"

[[record]]
compound = "N=C(N)SCC(=O)O"
target_or_test_system = "SK-MEL-5"
result = "> 100 µM (inactive)"

[[record]]
compound = "CCOC(=O)c1ccc2nc(-c3ccc(S(=O)(=O)F)cc3)cc(O)c2c1"
target_or_test_system = "SK-MEL-5"
result = "50.2 µM (inactive)"

[[record]]
compound = "CC1C(=O)CC(c2cccs2)N(N=O)C1c1cccs1 (configuration not stated)"
target_or_test_system = "SK-MEL-5"
result = "33.4 µM (inactive)"

[[record]]
compound = "Cc1cc(Cl)cc2c1NC(=O)C2(O)C(C)C(=O)c1ccc(Cl)cc1 (configuration not stated)"
target_or_test_system = "SK-MEL-5"
result = "27.7 µM (inactive)"


Items follow; give GI50 for each.
1. CN(C)Cc1cc(/N=N/c2c(Cl)cccc2Cl)ccc1O
2. O=C1N[C@@H]2c3c(csc3Br)C(=O)[C@@H]2O1

1. 17.5 µM (inactive)
2. > 100 µM (inactive)

* * *

Assignment: determine reported GI50 for the given compounds.
# Test system: SN12C
# ASSAY_OVERVIEW: NCI tumour cell line growth inhibition, 48 h
The source made the active and inactive calls. No stated cut-off is given here; in the data, active = GI50 up to about 1.1 µM and inactive = higher.

Previously resolved entries follow.
[[record]]
compound = "COc1cc2c(cc1OS(C)(=O)=O)N=C[C@@H]1CCCN1C2=O"
target_or_test_system = "SN12C"
result = "> 100 µM (inactive)"

[[record]]
compound = "C/C1=C\\CC[C@@]2(C)O[C@@H]2C[C@@H](C2(C)CO2)CC/C(C)=C/CC1 (stereo partly specified)"
target_or_test_system = "SN12C"
result = "17.7 µM (inactive)"

[[record]]
compound = "O=[N+]([O-])c1cc(CCl)ccc1CCl"
target_or_test_system = "SN12C"
result = "1.53 µM (inactive)"

[[record]]
compound = "CN(C)c1ccc(C=c2c3ccccc3n3c2c2c([n+]3C)CCCC2)cc1"
target_or_test_system = "SN12C"
result = "0.146 µM (active)"

[[record]]
compound = "O=c1[nH]c(Nc2ccc(Br)c(C(F)(F)F)c2)nc2[nH]cnc12"
target_or_test_system = "SN12C"
result = "43.3 µM (inactive)"

[[record]]
compound = "COC(=O)C1C(OC(=O)c2ccccc2)CC2CCC1N2C(N)=O (stereo unspecified)"
target_or_test_system = "SN12C"
result = "> 100 µM (inactive)"


Need GI50 for each of these compounds.
1. COc1cc(C2C(C(=O)O)=C(COC(C)=O)Oc3cc4c(cc32)OCO4)cc(OC)c1OC(C)=O (stereo unspecified)
2. CCN(CC)CCOCCn1c2c(c3ccccc31)CCCC2
3. CCSCCCC(=O)O
4. O=C(Nc1cc(Cl)c(Cl)cc1Cl)C(=O)C(C(=O)c1ccc2ccccc2c1)C1OC(=O)c2ccccc21 (stereo unspecified)
5. Cc1cc(O)c2c(c1)C(=O)c1cc(O)cc(O)c1C2=O

["> 100 µM (inactive)", "18.3 µM (inactive)", "> 100 µM (inactive)", "18.2 µM (inactive)", "20.5 µM (inactive)"]

* * *

Can you tell me GI50 for the items I'm about to list?
# System: HL-60
# ASSAY_OVERVIEW: NCI tumour cell line growth inhibition, 48 h
Calls of active or inactive are those of the source. Cut-off read from the data, not from the text of the source: active = GI50 up to about 1.1 µM and inactive = higher.

Example entries and their recorded answers appear below.
[[record]]
molecule = "CC1=C[P+](c2ccccc2)(c2ccccc2)c2ccccc2O1"
result = "2.06 µM (inactive)"

[[record]]
molecule = "O=C(Cc1ccccc1)Oc1ccc2c(-c3ccccc3)c(C(=O)Nc3ccc(Cl)cc3)c(=O)oc2c1"
result = "> 100 µM (inactive)"

[[record]]
molecule = "C/C1=C\\CC[C@@]2(C)O[C@@H]2C[C@@H](C2(C)CO2)CC/C(C)=C/CC1 (stereo not given in full)"
result = "27.1 µM (inactive)"

[[record]]
molecule = "O=C1Nc2ccccc2/C1=N/NC(=S)Nc1ccc(Cl)cc1"
result = "39 µM (inactive)"


So what's the measured GI50 for this one? CCOC(=O)c1c(Nc2ccccc2)sc2cccnc12 15.1 µM (inactive)

* * *

# Test system: PC-3
# ASSAY_OVERVIEW: NCI tumour cell line growth inhibition, 48 h
The source made the active and inactive calls. Rule as the data show it: active = GI50 up to about 1.1 µM and inactive = higher. Non-standard residues stand in square brackets, D forms with d. Residues, ends and D or L forms follow the SMILES beside them.
Consider the following compounds; for each one, report its GI50.

Some solved entries appear below for comparison.
[[record]]
compound = "O=C1CNc2cc(N3CCOCC3)ccc2N1"
target_or_test_system = "PC-3"
assay_metric = "GI50"
result = "> 100 µM (inactive)"

[[record]]
compound = "CO/N=C(\\C)CCC#Cc1ccccc1C(=O)OC"
target_or_test_system = "PC-3"
assay_metric = "GI50"
result = "> 10 µM (inactive)"

[[record]]
compound = "O=Cc1ccc2ccocc1-2"
target_or_test_system = "PC-3"
assay_metric = "GI50"
result = "> 100 µM (inactive)"

[[record]]
compound = "CC(C)(C)/N=c1/n(C(C)(C)C)oc(=O)n1-c1ccccc1"
target_or_test_system = "PC-3"
assay_metric = "GI50"
result = "> 50 µM (inactive)"

[[record]]
compound = "CC1(c2cccc(Cl)c2)CC(c2cccc(Cl)c2)=C(C#N)C(=C(C#N)C#N)N1 (stereo not drawn)"
target_or_test_system = "PC-3"
assay_metric = "GI50"
result = "17.6 µM (inactive)"


Please give GI50 for each item listed below.
1. O=C(O[C@H]1[C@@H](O)[C@H](n2cnc3c(Cl)ncnc32)O[C@@H]1COC(c1ccccc1)(c1ccccc1)c1ccccc1)c1ccccc1
2. O=CNNC(=O)CSc1nc2ccc(I)cc2c(=O)n1Cc1ccccc1

11 µM (inactive)
39 µM (inactive)

# map each compound to its GI50
1. CCN1CCN(c2ccc(Nc3ccnc4ccc5c(nnn5C)c34)cc2)CC1
2. COc1ccc(-[n+]2nc(S(=O)(=O)O)c(/C=C/c3ccc(N(C)C)cc3)cc2C#N)cc1
3. COc1ccc(-c2nc(-c3cc4c(ccc5ccccc54)oc3=O)cs2)cc1
4. CSCC[C@H](NC(=O)[C@@H](N)CC(N)=O)C(=O)N[C@@H](Cc1c[nH]c2ccccc12)C(=O)N[C@@H](CCC(N)=O)C(=O)N[C@@H](CCC(=O)O)C(=O)N[C@H](C(=O)NCC(=O)N[C@@H](CCCCN)C(=O)N[C@H](C)C(=O)O)C(C)C (H-NMWQEVGK[dA]-OH)

1: 5.28 µM (inactive); 2: > 100 µM (inactive); 3: > 100 µM (inactive); 4: > 100 µM (inactive)

Report GI50 for every entry below.
1. CC(=O)OCC(=O)O[C@@H]1[C@H]2[C@@H](OC(=O)c3ccccc3)[C@@H](C)C[C@]2(O)[C@H](OC(C)=O)[C@@]2(C)C(OC(C)=O)[C@]1(OC(C)=O)C[C@H]1C(=O)C(C)(C)C[C@@H]12 (stereo partly drawn)
2. Cc1ccc(C(=O)/C(C#N)=C/Nc2c(C)n(C)n(-c3ccccc3)c2=O)cc1
3. COc1ccc2[nH]cc(CCNC(=O)[C@H](Cc3ccccc3)NC(=O)[C@@H](NCC(F)(F)F)C(C)C)c2c1
4. C=C1CCCC2[C@](C)(CC3=C(Cl)C(=O)C=C(OC)C3=O)C(C)CC[C@]12C (stereo partly drawn)

> 47.9 µM (inactive)
> 100 µM (inactive)
18.2 µM (inactive)
1.58 µM (inactive)

* * *

# Tested on: KM-20L2
# ASSAY_OVERVIEW: NCI tumour cell line growth inhibition, 48 h
Activity calls are given as the source filed them. Rule as the data show it: active = GI50 up to about 1.1 µM and inactive = higher.
ASSAY_METRIC: GI50

[[record]]
compound = "CCOC(=O)NN1C(=O)C(=P(c2ccccc2)(c2ccccc2)c2ccccc2)C(C(=O)OCC)=C1C"
result = "> 100 µM (inactive)"

[[record]]
compound = "COc1ccccc1NC(=O)c1nc2ccc([N+](=O)[O-])cc2nc1C"
result = "> 100 µM (inactive)"

[[record]]
compound = "C#Cc1c(C)c(/C=C/C(C)=C/C=C/C(C)=C/C(=O)OC)n(C)c1C"
result = "> 100 µM (inactive)"


Hi! Can you tell me GI50 for each of these compounds?
1. COc1ccc(-c2cc(C(=O)Nc3cccc(C(F)(F)F)c3)nc(S)n2)cc1
2. O=C(O)c1cc2ccc(Cl)cc2c(O)c1C1=CCCCC1
3. NC(CO)c1ccc(OCc2ccccc2)cc1 (stereo unspecified)

1: > 100 µM (inactive); 2: 51.6 µM (inactive); 3: > 100 µM (inactive)
